system: Metabotropic glutamate receptor 8 (Rattus norvegicus) (UniProt P70579)
Sequence (P70579 whole entry, looked up): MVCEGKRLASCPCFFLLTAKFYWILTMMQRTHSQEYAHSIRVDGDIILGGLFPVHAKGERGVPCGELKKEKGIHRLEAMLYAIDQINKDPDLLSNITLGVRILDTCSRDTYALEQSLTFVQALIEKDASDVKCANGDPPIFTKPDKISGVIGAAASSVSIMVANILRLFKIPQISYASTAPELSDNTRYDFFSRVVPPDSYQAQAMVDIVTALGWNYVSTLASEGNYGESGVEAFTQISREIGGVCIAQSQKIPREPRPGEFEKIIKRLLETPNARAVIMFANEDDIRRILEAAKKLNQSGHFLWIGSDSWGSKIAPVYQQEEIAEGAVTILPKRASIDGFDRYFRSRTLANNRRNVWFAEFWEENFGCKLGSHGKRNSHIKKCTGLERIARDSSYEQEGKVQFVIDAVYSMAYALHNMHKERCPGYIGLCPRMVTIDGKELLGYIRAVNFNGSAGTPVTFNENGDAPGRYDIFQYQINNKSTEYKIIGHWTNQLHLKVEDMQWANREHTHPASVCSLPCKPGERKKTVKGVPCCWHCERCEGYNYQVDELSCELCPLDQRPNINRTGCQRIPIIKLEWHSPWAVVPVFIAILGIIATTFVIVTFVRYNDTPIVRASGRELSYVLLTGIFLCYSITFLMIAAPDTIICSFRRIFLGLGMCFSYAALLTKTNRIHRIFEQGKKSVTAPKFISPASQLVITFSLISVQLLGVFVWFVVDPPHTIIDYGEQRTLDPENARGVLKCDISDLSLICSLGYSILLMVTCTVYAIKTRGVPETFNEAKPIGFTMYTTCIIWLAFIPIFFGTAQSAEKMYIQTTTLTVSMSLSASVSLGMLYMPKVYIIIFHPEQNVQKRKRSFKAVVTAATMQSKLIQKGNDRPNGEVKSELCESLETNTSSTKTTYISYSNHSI
assay-comment: mGluR8 Gi/Go-coupled signaling modulation – cell-based, rat, thallium flux, HTS, primary screen (AID 488969)
test-conditions: HEK293 rat mGluR8, GIRK thallium flux, FluoZin2; at 10 µM; stronger effect = higher value; submaximal glutamate (EC20) added with thallium
Over roughly 110,000 compounds, “z-score” has its median near -0.1; the highest 2% begin near 2. The sample holds the highest values, similar compounds and a random draw of the others, so the mix is not that of the screen.
Field: z-score. Provide a value for each of the molecules that follow.
Give bare numbers.

Solved cases (5 shown):
Cc1cc(-c2ccc(F)cc2)nc2cc(C(N)=O)nn12 | 0.242
Clc1ccc(C2=C3CCCCn4c(-c5ccccc5)c[n+](c43)C2)cc1 | 0.498
NS(=O)(=O)c1ccc(NC(=S)NC(=O)c2ccco2)cc1 | -0.0865
O=S1(=O)C=C(SCc2ccccc2)Nc2ccccc21 | -0.11
CCOc1ccc(-c2nnc(-c3cccnc3)o2)cc1OCC | 0.0661

For each of the items listed, what is its z-score?
1. C/C=C/c1ccc(OCCOCCOc2cccc3cccnc23)c(OC)c1
2. Cc1ccc2nc(SCC(=O)NC3CCCc4ccccc43)[nH]c2c1 (stereo not drawn)
3. O=C(NC(=S)Nc1ccc(N2CCOCC2)cc1)c1cccc([N+](=O)[O-])c1

Response:
1. -0.356
2. 0.164
3. 0.169

----------
system: Metabotropic glutamate receptor 8 (Rattus norvegicus)
assay-comment: mGluR8 Gi/Go-coupled signaling modulation – cell-based, rat, thallium flux, HTS, primary screen (AID 488969)
test-conditions: HEK293 rat mGluR8, GIRK (G protein-gated inwardly rectifying potassium channel) thallium flux, FluoZin2; at 10 µM; stronger effect = higher value; submaximal glutamate (EC20) added with thallium
The full ranking holds about 110,000 compounds; the median of “z-score” is about -0.1, and the highest 2% start at about 2. The sample holds the highest values, similar compounds and a random draw of the others, so the mix is not that of the screen.
measured-property: z-score
Give bare numbers.

COC(=O)c1cc2sccc2n1CC(=O)N1CCCc2ccccc21 | 2.64

Consider the following items and state reported z-score for each.
1. Cc1ccc(OCCn2c(=O)sc3ccccc32)cc1
2. CCCCSc1nc(N)c(NC(=O)c2ccco2)c(=O)[nH]1
3. CCOC(=O)c1cn2nc(-c3ccc(OCC)cc3)cc2nc1C1CCN(C(=O)OC(C)(C)C)CC1
4. COC(=O)COc1ccc(S(=O)(=O)N2CCc3ccccc3C2)cc1
5. NC(=O)C(c1ncc(C(F)(F)F)cc1Cl)c1c(Cl)cccc1Cl (stereo not drawn)

Response:
1: -0.193; 2: 3.07; 3: -0.13; 4: -0.687; 5: -0.197

# return z-score for each item in the list
1. Cc1nc2ccc(S(=O)(=O)NCC(=O)N3CCCCC3)cc2s1
2. Cc1cccc(/C=N/n2c(-c3ccccn3)n[nH]c2=S)c1

Response:
-0.09
-0.174

Give z-score for each listed item.
1. CN(C)c1cccc(C(=O)Nc2ccc3nc4n(c(=O)c3c2)CCCCC4)c1
2. Cc1cccc(NC(=O)COC(=O)c2ccc3c(=O)n4c(nc3c2)CCC4)c1
3. CC(=O)c1ccc(NC(=S)N2CC(C)CC(C)C2)cc1 (stereo not drawn)

Response:
1. -0.303
2. 2.19
3. -0.208
